Molecular target: T1, human CNTN4 antigen expressed on the cell membrane of 293FT cells (human, UniProt Q8IWV2 19-1000)
T1 construct: whole, on cells; also called Human CNTN4 transfected cell
T1 sequence (looked up): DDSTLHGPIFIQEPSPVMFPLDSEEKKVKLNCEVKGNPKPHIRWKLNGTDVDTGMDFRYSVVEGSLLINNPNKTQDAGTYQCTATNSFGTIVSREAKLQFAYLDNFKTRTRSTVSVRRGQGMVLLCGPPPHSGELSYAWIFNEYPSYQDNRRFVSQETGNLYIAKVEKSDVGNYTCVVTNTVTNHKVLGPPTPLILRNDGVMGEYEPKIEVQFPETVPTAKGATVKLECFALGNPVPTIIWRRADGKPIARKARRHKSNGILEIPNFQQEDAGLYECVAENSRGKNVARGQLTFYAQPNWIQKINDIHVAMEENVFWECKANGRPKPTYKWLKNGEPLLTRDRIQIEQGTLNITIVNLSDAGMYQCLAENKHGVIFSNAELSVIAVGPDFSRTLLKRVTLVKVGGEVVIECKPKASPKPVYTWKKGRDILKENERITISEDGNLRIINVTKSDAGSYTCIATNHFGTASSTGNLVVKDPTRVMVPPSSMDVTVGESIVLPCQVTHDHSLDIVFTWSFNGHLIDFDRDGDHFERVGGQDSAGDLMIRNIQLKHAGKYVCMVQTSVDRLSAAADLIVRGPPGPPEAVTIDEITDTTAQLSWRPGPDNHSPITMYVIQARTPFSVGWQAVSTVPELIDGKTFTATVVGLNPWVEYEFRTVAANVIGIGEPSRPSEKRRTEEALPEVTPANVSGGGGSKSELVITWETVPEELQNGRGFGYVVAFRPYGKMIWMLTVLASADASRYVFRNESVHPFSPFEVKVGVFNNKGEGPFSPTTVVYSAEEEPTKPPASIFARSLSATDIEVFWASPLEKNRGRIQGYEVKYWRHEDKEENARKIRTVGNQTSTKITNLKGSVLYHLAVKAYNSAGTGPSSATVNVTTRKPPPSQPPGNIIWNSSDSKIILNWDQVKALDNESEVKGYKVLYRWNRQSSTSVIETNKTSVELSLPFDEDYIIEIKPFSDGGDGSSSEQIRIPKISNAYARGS
Experiment: FACS, 293FT cells transfected with human CNTN4, 40 ug/mL, anti-hFc-PE
PROPERTY_NAME: Shift % (%)
I only need the number, in %, no unit after it.

Before answering, review these 2 worked examples.
BINDER	Shift % / %
anti-CNTN4 IgG A35SF14 (antibody, V domains shown, human IgG4 (S228P)) VH: AVTLDESGGGLHTPGGALSLVCKASGFTFSSYGMAWVRQAPGKGLEWVAGITSSGSSAGYGPAVKGRATISRDNGQSTVRLQLNNLRAEDTATYYCAKDGYIYSGADSDSIDAWGHGTEVIVSS VL: ALTQPSSVSANPGETIKITCSGGGGSYGWYQQKSPGSAPVTVIYNGNNRPSDIPSRFSGSKSGSTATLTITGVQAEDEAVYFCGGYDSGTYSGIFGAGTTLTVL	81.6
anti-CNTN4 IgG A35SF38 (antibody, V domains shown, human IgG4 (S228P)) VH: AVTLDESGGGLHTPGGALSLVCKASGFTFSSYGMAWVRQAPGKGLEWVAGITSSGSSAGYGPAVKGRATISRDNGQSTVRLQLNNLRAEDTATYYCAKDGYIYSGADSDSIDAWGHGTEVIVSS VL: ALTQPSSVSANLGGTVKLTCSGSSGSYGWYQQKSPGSAPVTLIYNNNNRPSDIPSRFSGSTSGSTGTLTITGVRAEDEAVYFCGGYDSSTYVAIFGAGTTLTVL	77.9

Looking up anti-CNTN4 IgG A13SF7 (antibody, V domains shown, human IgG4 (S228P)) VH: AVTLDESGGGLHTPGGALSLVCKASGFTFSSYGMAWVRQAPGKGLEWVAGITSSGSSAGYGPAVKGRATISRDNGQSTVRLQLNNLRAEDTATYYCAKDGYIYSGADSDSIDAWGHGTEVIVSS VL: ALTQPSSVSANLGGTVEITCSGGSGSYGWYQQKSPGSAPVTLIYDNTNRPSNIPSRFSGSTSGSTSTLTITGVQADDEAVYFCGSADTNAAYAAIFGAGTTLTVL , I see its Shift % listed as 83.2
